// data source = PubChem BioAssay (Tox21)

Assay: qHTS assay to identify small molecule antagonists of the estrogen related receptor (ERR) signaling pathway from Tox21 library - cell viability counter screen (AID 1224834); note: % is set by controls: 0 for no effect and ±100 for the full control effect; nearly all actives have a fitted effect of over 30% in size
Details: ERR reporter cells viability, CellTiter-Fluor, 17.5 h; series mostly up to 92.4 µM
Experimental: National Center for Advancing Translational Sciences [NCATS] NIH Chemical Genomics Center [NCGC] U.S. Environmental Protection Agency [EPA] National Institutes of Environmental Health Sciences [NIEHS] National Toxicology Program [NTP] […] The ERR cells were dispensed at 2,000 cells/5 ul/well in 1536-well white plates using a Multidrop dispenser. […] After 30-minute incubation at 37 C/5% CO2, the fluorescence intensity in the plates was measured using a ViewLux plate reader.
Inconclusive results are not listed. The source made the active and inactive calls. Calls come from the whole dose curve; as a rule, active = well fitted cell-killing curve with a large enough effect in the repeat runs; inconclusive = weak or mixed curves; inactive = flat fitted curve, though single readings scatter.
Give your call using only these classes: yes = active, no = inactive

Prompt line: Kindly provide the recorded test outcome for the following compound: "Cc1cc(C)c(C=O)c(C)c1"
Response line: no

Prompt line: Kindly provide the recorded test outcome for the following compound: "C=CCCCCCCC=C"
Response line: no

Prompt line: Kindly provide the recorded test outcome for the following compound: "OCCN1CN(CCO)CN(CCO)C1"
Response line: no

Prompt line: Kindly provide the recorded test outcome for the following compound: "Brc1ccccn1"
Response line: no

Prompt line: Kindly provide the recorded test outcome for the following compound: "c1ccc(Sc2ccccc2)cc1"
Response line: no

* * *

Target: Cytochrome P450 2C19 (Homo sapiens) (UniProt P33261)
Sequence (P33261 whole entry, looked up): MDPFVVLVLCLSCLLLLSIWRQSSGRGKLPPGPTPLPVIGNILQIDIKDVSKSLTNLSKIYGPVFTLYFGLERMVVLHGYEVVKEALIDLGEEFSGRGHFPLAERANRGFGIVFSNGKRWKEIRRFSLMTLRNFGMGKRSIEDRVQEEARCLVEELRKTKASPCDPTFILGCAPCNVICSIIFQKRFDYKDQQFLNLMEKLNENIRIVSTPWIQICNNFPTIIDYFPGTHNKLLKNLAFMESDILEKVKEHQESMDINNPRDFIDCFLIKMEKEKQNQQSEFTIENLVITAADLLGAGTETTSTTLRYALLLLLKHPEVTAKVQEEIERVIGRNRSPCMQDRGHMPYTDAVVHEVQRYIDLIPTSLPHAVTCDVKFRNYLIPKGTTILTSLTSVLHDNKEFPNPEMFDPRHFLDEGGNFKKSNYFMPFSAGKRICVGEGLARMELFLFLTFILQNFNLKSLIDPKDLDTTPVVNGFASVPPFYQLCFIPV
Assay: Cytochrome P450 Family 2 Subfamily C Member 19 (CYP2C19) small molecule antagonists: luciferase reporter qHTS assay (AID 1671197); note: nearly all actives have a fitted effect of over 65% in size
Settings: P450-Glo CYP2C19 enzyme, luciferin luminescence, 1 h; series mostly up to 115 µM
Inconclusive results are not listed. The source made the active and inactive calls. Calls follow the shape of the dose curve; as a rule, active = well fitted inhibition curve with a large enough effect in the repeat runs; inconclusive = weak or mixed curves; inactive = no such curve, though single readings can be large or run the other way.
Give your call using only these classes: y (active), n (inactive)

O=C(Oc1ccccc1)c1cccc(C(=O)Oc2ccccc2)c1 | y

Prompt line: Kindly provide the recorded test outcome for the following compound: "Cc1cnccn1"
Response line: n

Prompt line: Kindly provide the recorded test outcome for the following compound: "C[Si](C)(C)Cl"
Response line: n

Prompt line: Kindly provide the recorded test outcome for the following compound: "c1ccc(Sc2ccccc2)cc1"
Response line: y

Prompt line: Kindly provide the recorded test outcome for the following compound: "CC1CCCCC1"
Response line: n

* * *

Test: A CellTox Green Cytotoxicity Assay to monitor cytotoxicity in HEK293 cells - 8 hour (AID 1224884); note: % is set by controls: 0 for no effect and ±100 for the full control effect; nearly all actives have a fitted effect of over 35% in size
Details: CellTox Green fluorescence; series mostly up to 76.8 µM
Records with an inconclusive call do not appear. Active and inactive are the calls of the source. The call rests on the fitted dose curve; in most records, active means well fitted activation curve with a large enough effect in the repeat runs; inconclusive means weak or mixed curves; inactive means flat fitted curve, though single readings scatter.
Give your call using only these classes: active, inactive

Use the examples below as a reference point.
CN(Cc1cc(Br)cc(Br)c1N)C1CCCCC1 | inactive
CCNc1nc(NC(C)CC)nc(OC)n1 (stereo not given) | inactive

Now for a further molecule.
Prompt line: Kindly provide the recorded test outcome for the following molecule: "CC(C)(C)c1cc(CCC(=O)NCCCCCCNC(=O)CCc2cc(C(C)(C)C)c(O)c(C(C)(C)C)c2)cc(C(C)(C)C)c1O"
Response line: inactive

* * *

Experiment: qHTS assay to identify small molecule agonists of the estrogen related receptor (ERR) signaling pathway from Tox21 library (AID 1224849); note: % is set by controls: 0 for no effect and ±100 for the full control effect; nearly all actives have a fitted effect of over 15% in size
Conditions: ERR reporter cell line, ONE-Glo luciferase, 18 h; at 92.4 µM (top of the series) unless noted
Calls of active or inactive are those of the source. The call rests on the fitted dose curve.
// reported activity change, positive = activation for each item listed

Cc1cc(Nc2ccc(O)cc2)ccc1N | -47.7% (inactive)
CCCCCCCCCCCCCC[n+]1ccccc1 | -77.5% (inactive)
CC1CCCCN1CCCOC(=O)c1ccc(OC2CCCCC2)cc1 (centres undefined) | -35.8% [at 42.5 µM] (inactive)

The measured activity change, positive = activation associated with O=C1NC2CCCCN2C12CCN(CCCN1c3ccccc3CCc3ccc(Cl)cc31)CC2 (centres undefined) reads -64.1% [at 42.5 µM] (inactive)

The measured activity change, positive = activation associated with "Oc1ccc(-c2ccc(O)cc2)cc1" reads -24.2% (inactive)

The measured activity change, positive = activation associated with "c1cc2c3c(c1)ccc1cccc(c13)C2" reads -42.3% (inactive)

The measured activity change, positive = activation associated with Clc1ccc(C(Cn2ccnc2)OCc2ccsc2Cl)c(Cl)c1 (centres undefined) reads -53.5% [at 42.5 µM] (inactive)

The measured activity change, positive = activation associated with "CCCCCCCCCC(=O)N(C)C" reads 3.98% (inactive)

The measured activity change, positive = activation associated with "O=C1NCCN1CCN1CCC(c2cn(-c3ccc(F)cc3)c3ccc(Cl)cc23)CC1" reads -56.2% [at 42.5 µM] (inactive)

The measured activity change, positive = activation associated with "O=C1c2c(O)ccc([N+](=O)[O-])c2C(=O)c2c([N+](=O)[O-])ccc(O)c21" reads -80% (inactive)

The measured activity change, positive = activation associated with "CCCCCCCCCCCCCCCCCO" reads -4.89% [at 19 µM] (inactive)

The measured activity change, positive = activation associated with "CNC(=O)c1cc(Oc2ccc(NC(=O)Nc3ccc(Cl)c(C(F)(F)F)c3)cc2)ccn1" reads -59.1% [at 42.5 µM] (inactive)

The measured activity change, positive = activation associated with "Cc1cccc(N(C)C)c1" reads -0.051% (inactive)

The measured activity change, positive = activation associated with "CCOCOCC" reads 0.502% (inactive)
